# protocol_text: amyloid nucleation score (Sup35N fusion, yeast selection) (log enrichment); library NNK1; higher = more nucleation; inactive = no reads after selection;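 note: zero at mode of non-aggregating sequences after 7 days selection at 30°C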
For each of the substances below, state its amyloid nucleation score.
Give the value as a plain number.

RWPTRNFQGTVRYAR yielded amyloid nucleation score of -0.62

amyloid nucleation score for NMRVFWSARRQALFQWRIL is 0.807

Just so you know, measured amyloid nucleation score for RVYISMM came out at -1.41

amyloid nucleation score recorded for this substance, PCSFNA , is -0.267

The recorded amyloid nucleation score for entry IYNFSKYPVFGKTRALGFNF equals -0.395

The substance identified as GEKCGSVPGHQLGTDILSRA registered its amyloid nucleation score at 0.819

Per the record, GFNLSRTAMMICFGYFTA has amyloid nucleation score of 6.61

Sure, the documented amyloid nucleation score for QCAWCTRSVNNMYQTLEYHI is 6.15

// sample VFNWTHPWLSQH , its amyloid nucleation score was -0.047

Query GPSRRTLRGNFNHLVTYWCP yields amyloid nucleation score of 0.003

Consider KGDNIPLGAPSREMLTVYRA . Its measured amyloid nucleation score is -0.146

According to the records, this substance LTGCLNEYGVSNFMEVRVFR displays amyloid nucleation score of -1.88

The reported amyloid nucleation score of the substance VRDMHSHTLGYCRDGMYYFK was -0.403

The value of amyloid nucleation score measured for the substance WRGCVNFCEKKPGVGVSSV turned out to be 0.076

amyloid nucleation score in this record for FTARTGALGEVVWSFSLGLG : 0.316

Noted for PNYDVMSLYRTNYGNYSHSV : its amyloid nucleation score reads 0.471

====

# protocol_text: amyloid nucleation score (Sup35N fusion, yeast selection) (log enrichment); library NNK3; higher = more nucleation; inactive = no reads after selection
recorded_endpoint: amyloid nucleation score

Here is how some sequences turned out for amyloid nucleation score.
{"columns": ["biopolymer_sequence", "amyloid nucleation score"],
 "data": [
  ["VNWRVRWIYSILGKS", "inactive"],
  ["GLGWNWDWR", "inactive"],
  ["VATKQVVQGLMSPNN", "inactive"],
  ["WTESWYKYMNKDVSSHCKQS", "inactive"],
  ["FVRDRFTIMFEWIAVLRLEL", "inactive"],
  ["SCMGFVRQANIVG", "inactive"],
  ["NFVQFSTTISFDHNCHMVGC", "inactive"],
  ["MSVTMMAKWTTLILGIGTGM", "inactive"]
]}

amyloid nucleation score in this record for QDLTLLCVSIWWKLGWSESR : inactive

What the record says about NQLYSWWRFYGLNS : amyloid nucleation score is inactive

Note to self: amyloid nucleation score recorded for PIFWGSSDDYLCRWTLTMCH was -0.3

Form field amyloid nucleation score, entry LTQLTIIKTGLTCLMA : inactive

Lookup result for HALFGYISRVDNLYSSMVSH ; measured amyloid nucleation score: inactive

VLGSRVKGDYCRCLEMECIW has a reported amyloid nucleation score of inactive

Looking up CMKLYRHFLNKASVHSDKGV , I found its amyloid nucleation score recorded as inactive

Sure, the documented amyloid nucleation score for GWGPRPSKNVCHIRCDMFFM is 1.59

Reported amyloid nucleation score for MWAGCGVSGPALGHAGSARR was inactive

====

# protocol_text: amyloid nucleation score (Sup35N fusion, yeast selection) (log enrichment); library NNK3; higher = more nucleation; inactive = no reads after selection
recorded_endpoint: amyloid nucleation score

{"columns": ["substance", "amyloid nucleation score"],
 "data": [
  ["LRVPSPYIFYKSKGHNIGSL", "inactive"],
  ["RDPDGRIYMYGLDVIQYVTN", "inactive"],
  ["MLNWPIDRDSWRPGFDMWLG", -0.426],
  ["KKMLLWHI", "inactive"],
  ["MSRGCCINLTLQIRVFWNTM", "inactive"]
]}

Record VDNCIWLFLSTFYDGCVVML , field amyloid nucleation score: inactive

Value of measured amyloid nucleation score for the entry SWMYEFGSGTVKGGGKSELD : inactive

# amyloid nucleation score (substance: VLGVVT ) is inactive

The substance LYVFLLNECSWRAPGASI showed amyloid nucleation score equal to inactive

According to the records, this substance FSRLFCNSALCIMRFVNTSS displays amyloid nucleation score of 1.52

amyloid nucleation score recorded for this substance, DVCTLSELSVFPSLSISQ , is inactive

====

# protocol_text: amyloid nucleation score (Sup35N fusion, yeast selection) (log enrichment); library NNK3; higher = more nucleation; inactive = no reads after selection
recorded_endpoint: amyloid nucleation score

Known results for substances:
{"columns": ["substance", "measured_result"],
 "data": [
  ["RRTPLWSPMVRNLSYALLAG", "inactive"],
  ["SMRLVAWYW", "inactive"],
  ["GCRLPSWMYLVGELISFLSG", "inactive"],
  ["RALVFIIQVVFRFPCTAGIL", "inactive"],
  ["QPDFLSWVDACVNKVVYWVK", -0.421],
  ["SYMACYFSIAYEYFNSTFDK", "inactive"],
  ["YKVILTCSKC", "inactive"],
  ["EPGILLM", "inactive"]
]}

Per the records, this substance ( SRSPNFQKFLHCMTTSN ) has amyloid nucleation score equal to inactive

Lab note: measured amyloid nucleation score of LSGLESVRSSYDWVVGGWIS was -0.329

Noted for RSQSVQKIEATLSLLIGAPK : its amyloid nucleation score reads inactive

Reported amyloid nucleation score ( CDGNMVGSTAIPVSFFPFGR ) = inactive

For HRYYYFF the substance record lists amyloid nucleation score as 1.83

// field: amyloid nucleation score; key: RFGYKLFRSSVYGRGESYDY ; value = inactive

The measured amyloid nucleation score associated with SACSYYTMHHIFGAMFHN reads inactive

According to the records, this substance DTVMGSCDEFYLFASRHLCL displays amyloid nucleation score of inactive

Form: substance = LWRKMVVPYFYP ; amyloid nucleation score = inactive

====

# protocol_text: amyloid nucleation score (Sup35N fusion, yeast selection) (log enrichment); library NNK3; higher = more nucleation; inactive = no reads after selection
recorded_endpoint: amyloid nucleation score

Consider the worked cases shown below.
{"columns": ["substance", "amyloid nucleation score"],
 "data": [
  ["GESLQLECLYFTFIKMYVSL", "inactive"],
  ["EMTGTYEVCFMT", "inactive"],
  ["VLFSGFFYLSDNYKLMGFVH", "inactive"],
  ["TFVVSVMHKCAW", 1.18],
  ["GLALGWHFTC", "inactive"],
  ["FGIWFGRNLGVGMDTKMSRF", "inactive"],
  ["CNVGPVSLFRFMGPLNYRDE", "inactive"],
  ["ICVCEQSTVVYTKELSTFGA", 0.012],
  ["GIYCMSVSWFNVDLDTTGNT", "inactive"],
  ["AYVLARFLEDFFMILLWDRW", "inactive"]
]}

// EYNPQLSRNSNDLYADELKE : amyloid nucleation score value = inactive

Measured amyloid nucleation score of HVCHKTYLSLKLHKLDFFYS : 0.391

amyloid nucleation score recorded for this substance, SGDPGGHQSRR , is inactive

Short answer for GSKESPKRYSSSALASVGVI : amyloid nucleation score was inactive

Consider IADFNSL . Its measured amyloid nucleation score is inactive

The measured amyloid nucleation score associated with WVSSDRHSSLVNWKHGLSQE reads inactive

====

# protocol_text: amyloid nucleation score (Sup35N fusion, yeast selection) (log enrichment); library NNK2; higher = more nucleation; inactive = no reads after selection
Class Y: amyloid nucleation score at least -0.4. Class N: amyloid nucleation score below -0.4.

Lookup: Answer whether amyloid nucleation score of IRKRCGINGMYRWIWVTWYL is greater than or equal to -0.4.
Found: N

Lookup: Could you tell me if the measured amyloid nucleation score of FRMFNVGFPDRPIMFRVDRL reaches -0.4 or more?
Found: Y

Lookup: Dear colleague, could you confirm whether YFFTLKV has amyloid nucleation score at or above -0.4?
Found: Y

Lookup: Check the entry SQSKDMMCLSGSYSYYTACA : does amyloid nucleation score equal or exceed -0.4?
Found: N

Lookup: Assess whether reported amyloid nucleation score for GYMSYT sits at -0.4 or higher.
Found: N

Lookup: Decide: is the reported value of amyloid nucleation score for RYTWWWHSLFMSDSVAMNSA equal to or greater than -0.4?
Found: Y

Lookup: Quick check: does RYQGLLTPVTAGRLFICIP have amyloid nucleation score greater than or equal to -0.4?
Found: Y

====

# protocol_text: amyloid nucleation score (Sup35N fusion, yeast selection) (log enrichment); library NNK1; higher = more nucleation; inactive = no reads after selection
I'd appreciate it if you could supply amyloid nucleation score values for the items below.
Please give only the number in your answer, with no unit.

For record GWMYVSMLFGVG the listed amyloid nucleation score is -0.455

Record LLGMRFSVVPSPATFGWTHF . Reported amyloid nucleation score: 1.81

The recorded amyloid nucleation score for entry CMAFVFKTCFVFRCNVGKCA equals 0.527

The reported amyloid nucleation score of the substance LHTKVV was 0.431

Form: substance = ISEVFD ; amyloid nucleation score = -0.237

Sample QKKSLVRGKGES ; amyloid nucleation score observed: -0.145

Item: SLNSPL | amyloid nucleation score: 0.391

Value of amyloid nucleation score reported for the substance RSSNNIPGGYWEPYGQHHFH is 2.44

amyloid nucleation score in this record for KRPSMM : -0.18

So, VYRTNLSINSTFIWTHELRS ? Its amyloid nucleation score was 0.525

Reported amyloid nucleation score of DMMAIGSTTVCLVLRFFGKM : -0.929

The measured amyloid nucleation score associated with PFVDFVVSRNYLRL reads 0.572

Just so you know, measured amyloid nucleation score for LIHSRKVLSSMTYIEGPLTS came out at 0.166

Lab note: CVKERELIFFWYVVRSEYDL gave amyloid nucleation score of -0.485

Lab note: KFIVWTFWSYLLTATRM gave amyloid nucleation score of 0.157

The recorded amyloid nucleation score for LCNVEDRPYKKFPTDVASK is -0.031

For reference, reported amyloid nucleation score for LLIWRN stands at 0.995

Record YLRDVRLYCVMRK . Reported amyloid nucleation score: -0.129
